Where do the numbers come from? From the supplement of paper PMC3724861.

- Tested on: Caupolican (Caup) homeodomain DNA-binding domain
- Sequence: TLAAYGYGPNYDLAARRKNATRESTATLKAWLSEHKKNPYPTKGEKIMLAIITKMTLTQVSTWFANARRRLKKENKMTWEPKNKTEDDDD
- Test summary: PBM E-score (8-mer, recovered from the published 9-mer minima) (E-score (dimensionless, -0.5 to 0.5)); higher = stronger relative binding preference, active = 0.31 or more
Shown is part of a subset that was picked to be rich in hits. No count for the full screen is at hand.
Hi there, use one of these labels in your reply, thanks! YES (active), NO (inactive)

Examples with answers:
ACGACAAG; YES
CACGCACA; NO
CACATGCG; NO
ATTTGGAC; NO
CTTGTAAC; YES

Record request — test call for `CCGACGCG` NO

Recorded test outcome, item `CCTGTAAC` NO

----------
- Test system: Caupolican (Caup) homeodomain DNA-binding domain
- Sequence: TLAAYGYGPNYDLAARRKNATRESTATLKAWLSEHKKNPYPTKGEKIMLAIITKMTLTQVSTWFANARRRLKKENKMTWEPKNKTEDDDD
- Test summary: PBM E-score (8-mer, recovered from the published 9-mer minima) (E-score (dimensionless, -0.5 to 0.5)); higher = stronger relative binding preference, active = 0.31 or more
Many of the other results were omitted from the sample, so hits are more common in it than they were. No count for the full screen is at hand.
Result category, one only: T = active, F = inactive

ATTGTATC; F

Assay outcome for `CAACAAGC` : what was it? F

Please indicate how the test categorized `GTGTGTCA` . T

State the result this test recorded for `AACTAACA` . T

What did this assay record as the result for `CAACAAGG` ? T

----------
- System: Caupolican (Caup) homeodomain DNA-binding domain
- Sequence: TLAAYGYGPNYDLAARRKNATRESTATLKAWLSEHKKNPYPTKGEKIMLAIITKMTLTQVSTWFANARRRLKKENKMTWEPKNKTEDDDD
- Test summary: PBM E-score (8-mer, recovered from the published 9-mer minima) (E-score (dimensionless, -0.5 to 0.5)); higher = stronger relative binding preference, active = 0.31 or more
Many of the other results were omitted from the sample, so hits are more common in it than they were. No count for the full screen is at hand.
Choose one outcome from this list and give only that: 1 = active, -1 = inactive

Reference set (5 entries):
GTCTACAA; -1
ATGATGTG; -1
AGTACACG; 1
CGTTTTAC; -1
ATTACAAA; -1

So what was the verdict on `AACACGAG` in this test? -1

I would be grateful if you could indicate the recorded call for `ATGTACAA` . 1

Tell me the recorded outcome of this test for `AAGGTCTC` . -1

I'd appreciate the recorded outcome for `GTGTGTAA` from this test. -1

What did this assay record as the result for `CACAAACC` ? -1

----------
List of PBM E-score values.
- Test system: Caupolican (Caup) homeodomain DNA-binding domain
- Sequence: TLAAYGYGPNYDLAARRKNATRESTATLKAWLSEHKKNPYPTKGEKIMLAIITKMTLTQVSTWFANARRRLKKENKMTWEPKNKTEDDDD
- Test summary: PBM E-score (8-mer, recovered from the published 9-mer minima) (E-score (dimensionless, -0.5 to 0.5)); Drosophila protein; higher = stronger relative binding preference, active = 0.31 or more
Only a selection was taken, and hits are over-represented in it overall. The hit rate among all sequences tested is not known here.

GCATGACA; 0.21 (inactive)
CAATGTAG; 0.182 (inactive)
ATGTATCC; 0.332 (active)
ATAAACAT; 0.321 (active)
ACTGATCC; 0.062 (inactive)

Readout PBM E-score for `TATGTTAA` , test system Caupolican (Caup) homeodomain DNA-binding domain, was 0.314 (active)

Note to self: PBM E-score of `GGATGTCA` with Caupolican (Caup) homeodomain DNA-binding domain was 0.311 (active)

The measured PBM E-score that `ACATGACA` showed for Caupolican (Caup) homeodomain DNA-binding domain is ≥ 0.43 (active)

PBM E-score for Caupolican (Caup) homeodomain DNA-binding domain with input `GTCTTGTA` equals 0.352 (active)

Response field PBM E-score (Caupolican (Caup) homeodomain DNA-binding domain) for item `ATCTTGTA` : 0.375 (active)

// sequence `CTGTATCC` , assay Caupolican (Caup) homeodomain DNA-binding domain, PBM E-score value: 0.2 (inactive)

Field PBM E-score (system: Caupolican (Caup) homeodomain DNA-binding domain) for entry `AATGTCGA` = 0.212 (inactive)

Record `CATGTCGA` ; system Caupolican (Caup) homeodomain DNA-binding domain; PBM E-score = 0.412 (active)

Item `GATGTCGA` was tested on Caupolican (Caup) homeodomain DNA-binding domain; the reported PBM E-score is 0.217 (inactive)

Reported PBM E-score (Caupolican (Caup) homeodomain DNA-binding domain) for entry `CAGGTCGG` is -0.0619 (inactive)

Query `ATGTATCA` on Caupolican (Caup) homeodomain DNA-binding domain; PBM E-score returned: 0.321 (active)

// sequence `ACAGTTTC` , assay Caupolican (Caup) homeodomain DNA-binding domain, PBM E-score value: 0.0345 (inactive)

`GATGTTAA` on Caupolican (Caup) homeodomain DNA-binding domain gives PBM E-score = 0.28 (inactive)

# `AACCATGC` with Caupolican (Caup) homeodomain DNA-binding domain: PBM E-score is 0.0352 (inactive)

Note to self: PBM E-score of `AAAGGATA` with Caupolican (Caup) homeodomain DNA-binding domain was 0.105 (inactive)

Entry `CGTGTCAA` ; assay system Caupolican (Caup) homeodomain DNA-binding domain; PBM E-score recorded at 0.282 (inactive)
